Source of measurements: ChEMBL document CHEMBL1145380

- STUDY SYSTEM: Gastrin/cholecystokinin type B receptor (Canis lupus familiaris, UniProt P30552)
- Sequence (P30552 whole entry): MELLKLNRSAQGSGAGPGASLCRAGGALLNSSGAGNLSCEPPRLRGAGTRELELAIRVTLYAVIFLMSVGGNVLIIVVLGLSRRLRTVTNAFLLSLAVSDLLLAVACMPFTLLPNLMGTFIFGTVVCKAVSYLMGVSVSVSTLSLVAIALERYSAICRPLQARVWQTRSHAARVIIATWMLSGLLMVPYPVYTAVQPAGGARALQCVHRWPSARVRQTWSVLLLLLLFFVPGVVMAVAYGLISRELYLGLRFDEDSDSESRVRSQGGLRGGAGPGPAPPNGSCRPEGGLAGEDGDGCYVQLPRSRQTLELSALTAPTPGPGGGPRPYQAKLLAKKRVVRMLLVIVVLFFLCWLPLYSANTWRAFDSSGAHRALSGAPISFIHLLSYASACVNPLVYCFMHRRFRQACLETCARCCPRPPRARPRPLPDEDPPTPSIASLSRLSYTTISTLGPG
- PROTOCOL: Displacement of [125I]BH-[…] from CCK2 receptor in canine gastric mucosa
Criterion: Ki strictly less than 4 nM. Met: t. Not met: f.

Reference set, count: 5
[
  {
    "TEST SMILES": "CC(C)(C)C(=O)CN1C(=O)N(CC(=O)Nc2cccc(CC(=O)O)c2)N=C(C2CCCCC2)c2ccccc21",
    "STUDY SYSTEM": "Gastrin/cholecystokinin type B receptor (Canis lupus familiaris, UniProt P30552)",
    "CLASS LABEL": "f"
  },
  {
    "TEST SMILES": "CC(C)(C)C(=O)CN1C(=O)N(CC(=O)Nc2cccc(SCC(=O)O)c2)N=C(C2CCCCC2)c2ccccc21",
    "STUDY SYSTEM": "Gastrin/cholecystokinin type B receptor (Canis lupus familiaris, UniProt P30552)",
    "CLASS LABEL": "f"
  },
  {
    "TEST SMILES": "Cc1ccccc1C(=O)CN1C(=O)N(CC(=O)Nc2cccc(C(=O)O)c2)N=C(C2CCCCC2)c2ccccc21",
    "STUDY SYSTEM": "Gastrin/cholecystokinin type B receptor (Canis lupus familiaris, UniProt P30552)",
    "CLASS LABEL": "f"
  },
  {
    "TEST SMILES": "O=C(CN1N=C(C2CCCCC2)c2ccccc2N(CC(=O)C2CCCC2)C1=O)Nc1cccc(-c2nc(=O)o[nH]2)c1",
    "STUDY SYSTEM": "Gastrin/cholecystokinin type B receptor (Canis lupus familiaris, UniProt P30552)",
    "CLASS LABEL": "f"
  },
  {
    "TEST SMILES": "O=C(CN1N=C(C2CCCCC2)c2ccccc2N(CC(=O)C2CCCC2)C1=O)Nc1cccc(C(=O)O)c1",
    "STUDY SYSTEM": "Gastrin/cholecystokinin type B receptor (Canis lupus familiaris, UniProt P30552)",
    "CLASS LABEL": "f"
  }
]

Problem: For the compound `O=C(O)Cc1cccc(NC(=O)CN2N=C(C3CCCCC3)c3ccccc3N(CC(=O)C3CCCC3)C2=O)c1` , is Ki under 4 nM? f

Problem: For the compound `CN(c1cccc(NC(=O)CN2N=C(C3CCCCC3)c3ccccc3N(CC(=O)C(C)(C)C)C2=O)c1)c1nn[nH]n1` , is Ki under 4 nM? f

Problem: For the compound `O=C(O)CSc1cccc(NC(=O)CN2N=C(C3CCCCC3)c3ccccc3N(CC(=O)C3CCCC3)C2=O)c1` , is Ki under 4 nM? f

Problem: For the compound `CC(C)(C)C(=O)CN1C(=O)N(CC(=O)Nc2cccc(-c3nn[nH]n3)c2)N=C(C2CCCCC2)c2ccccc21` , is Ki under 4 nM? t

Problem: For the compound `O=C(O)CCc1cccc(NC(=O)CN2N=C(C3CCCCC3)c3ccccc3N(CC(=O)C3CCCC3)C2=O)c1` , is Ki under 4 nM? f

Problem: For the compound `CC(C)(C)C(=O)CN1C(=O)N(CC(=O)Nc2cccc(-c3nc(=O)o[nH]3)c2)N=C(C2CCCCC2)c2ccccc21` , is Ki under 4 nM? f

Problem: For the compound `CC(C)(C)C(=O)CN1C(=O)N(CC(=O)Nc2ccc3ccn(CC(=O)O)c3c2)N=C(C2CCCCC2)c2ccccc21` , is Ki under 4 nM? t
